Cited source for all entries: patent US20180002415A1

studyTarget: T1, 481-660
T1 construct: Expressed in E. coli
T1 GST fusion polypeptide: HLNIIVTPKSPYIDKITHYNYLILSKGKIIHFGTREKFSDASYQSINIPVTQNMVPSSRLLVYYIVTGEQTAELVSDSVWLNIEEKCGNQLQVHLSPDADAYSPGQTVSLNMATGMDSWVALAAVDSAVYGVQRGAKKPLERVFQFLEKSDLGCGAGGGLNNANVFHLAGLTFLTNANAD
protocol: Western blot of E. coli lysates expressing GST-fused C5 beta-chain fragments
observedProperty: binding result

CFA0501 (antibody, V domains shown, Chimeric, rabbit V regions; also called CFA0501-F760G4) VH: QSVEESGGRLVTPGTPLTLTCTASGFSLSSYYMNWVRQAPGKGLEWIGMIYGSGATYYASWAKGRFTISKTSSTTVDLKMTSLTTEDTATYFCARQIYSGDNNDNFWGPGTLVTVSS VL: AYDMTQTPASVEVAVGGTVTINCQASESISNWLAWYQQKPGQRPKLLIYRASTLASGVSSRFKGSGSGTQFTLTISGVECDDAATYYCQQDYSSSNVDNTFGGGTKVVVE | no binding
CFA0666 (antibody, V domains shown, Chimeric, rabbit V regions; also called CFA0666-F760G4) VH: QSVEESGGRLVTPGTPLTLTCTVSGFSLSTYAMGWVRQAPGKGLEWIGTIDTGDNSFYANWAKGRFTISKTSTTVDLKITSPTAEDTATYFCARNDGSVYNLFNLWGPGTLVTVSS VL: DVVMTQTPASVSAAVGGTVTIKCQASENIYSALSWYQQKPGLRPRLLIYYASTLASGVPSRFKGSRSGTEFTLTISDLECADAATYYCQQYYDINSVDNTFGGGTKVVVE | no binding
CFA0538 (antibody, V domains shown, Chimeric, rabbit V regions; also called CFA0538-F760G4) VH: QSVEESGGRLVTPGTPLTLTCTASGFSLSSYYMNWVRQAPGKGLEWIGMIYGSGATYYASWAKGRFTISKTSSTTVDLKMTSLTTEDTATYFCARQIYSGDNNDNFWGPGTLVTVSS VL: AYDMTQTPASVEVAVGGTVTINCQASESISNWLAWYQQKPGQRPKLLIYRASTLASGVSSRFKGSGSGTQFTLTISGVECDDAATYYCQQDYSSSNVDNTFGGGTTVVVE | no binding
